# credit: patent US20220056104A1

I'd be grateful if you could share measured EC50 for these entries.
TARGET OR TEST SYSTEM: T1, DcR3 (UniProt O95407 30-300, limits assumed)
T1 construct: the construct is not described; also called decoy receptor DcR3; TNFRSF6B
T1 sequence (looked up): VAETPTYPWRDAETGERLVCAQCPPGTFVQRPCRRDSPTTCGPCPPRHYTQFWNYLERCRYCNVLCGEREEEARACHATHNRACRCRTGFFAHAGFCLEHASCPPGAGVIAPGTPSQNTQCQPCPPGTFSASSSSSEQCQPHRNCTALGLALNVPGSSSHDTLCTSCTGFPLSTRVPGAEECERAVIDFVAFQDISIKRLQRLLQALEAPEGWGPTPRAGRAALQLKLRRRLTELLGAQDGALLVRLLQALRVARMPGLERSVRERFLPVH
PROCEDURE SUMMARY: ELISA, DcR3
Give bare numbers, in nM.

The examples below pair each entry with its known result.
TL1W97 (His-TEV-TL1A K173S) (ligand, also called TL1W97 (K173S)) HHHHHHENLYFQGLKGQEFAPSHQQVYAPLRADGDKPRAHLTVVRQTPTQHFKNQFPALHWEHELGLAFTKNRMNYTNKFLLIPESGDYFIYSQVTFRGMTSECSEIRQAGRPNSPDSITVVITKVTDSYPEPTQLLMGTKSVCEVGSNWFQPIYLGAMFSLQEGDKLMVNVSDISLVDYTKEDKTFFGAFLL :: 6.7
TL1W91 (His-TEV-TL1A R156E) (ligand, also called TL1W91 (R156E)) HHHHHHENLYFQGLKGQEFAPSHQQVYAPLRADGDKPRAHLTVVRQTPTQHFKNQFPALHWEHELGLAFTKNRMNYTNKFLLIPESGDYFIYSQVTFEGMTSECSEIRQAGRPNKPDSITVVITKVTDSYPEPTQLLMGTKSVCEVGSNWFQPIYLGAMFSLQEGDKLMVNVSDISLVDYTKEDKTFFGAFLL :: 8.3
TL1W112 (His-TEV-TL1A P189F) (ligand, also called TL1W112 (P189F)) HHHHHHENLYFQGLKGQEFAPSHQQVYAPLRADGDKPRAHLTVVRQTPTQHFKNQFPALHWEHELGLAFTKNRMNYTNKFLLIPESGDYFIYSQVTFRGMTSECSEIRQAGRPNKPDSITVVITKVTDSYFEPTQLLMGTKSVCEVGSNWFQPIYLGAMFSLQEGDKLMVNVSDISLVDYTKEDKTFFGAFLL :: 66.1
TL1W122 (His-TEV-TL1A N207F) (ligand, also called TL1W122 (N207F)) HHHHHHENLYFQGLKGQEFAPSHQQVYAPLRADGDKPRAHLTVVRQTPTQHFKNQFPALHWEHELGLAFTKNRMNYTNKFLLIPESGDYFIYSQVTFRGMTSECSEIRQAGRPNKPDSITVVITKVTDSYPEPTQLLMGTKSVCEVGSFWFQPIYLGAMFSLQEGDKLMVNVSDISLVDYTKEDKTFFGAFLL :: 10.6

Hey, can you go through the list below and give me EC50 for every item?
1. TL1W128 (His-TEV-TL1A Y238S) (ligand, also called TL1W128 (Y238S)) HHHHHHENLYFQGLKGQEFAPSHQQVYAPLRADGDKPRAHLTVVRQTPTQHFKNQFPALHWEHELGLAFTKNRMNYTNKFLLIPESGDYFIYSQVTFRGMTSECSEIRQAGRPNKPDSITVVITKVTDSYPEPTQLLMGTKSVCEVGSNWFQPIYLGAMFSLQEGDKLMVNVSDISLVDSTKEDKTFFGAFLL
2. TL1W29 (His-TEV-hTL1A 72-251 P189A) (ligand, also called TL1W29 (P189A)) HHHHHHENLYFQGLKGQEFAPSHQQVYAPLRADGDKPRAHLTVVRQTPTQHFKNQFPALHWEHELGLAFTKNRMNYTNKFLLIPESGDYFIYSQVTFRGMTSECSEIRQAGRPNKPDSITVVITKVTDSYAEPTQLLMGTKSVCEVGSNWFQPIYLGAMFSLQEGDKLMVNVSDISLVDYTKEDKTFFGAFLL
3. TL1W123 (His-TEV-TL1A N207S) (ligand, also called TL1W123 (N207S)) HHHHHHENLYFQGLKGQEFAPSHQQVYAPLRADGDKPRAHLTVVRQTPTQHFKNQFPALHWEHELGLAFTKNRMNYTNKFLLIPESGDYFIYSQVTFRGMTSECSEIRQAGRPNKPDSITVVITKVTDSYPEPTQLLMGTKSVCEVGSSWFQPIYLGAMFSLQEGDKLMVNVSDISLVDYTKEDKTFFGAFLL

10.5
7.6
8.6

Hey, can you go through the list below and give me EC50 for every item?
1. TL1W40 (His-TEV-TL1A L123S) (ligand, also called TL1W40 (L123S)) HHHHHHENLYFQGLKGQEFAPSHQQVYAPLRADGDKPRAHLTVVRQTPTQHFKNQFPALHWEHESGLAFTKNRMNYTNKFLLIPESGDYFIYSQVTFRGMTSECSEIRQAGRPNKPDSITVVITKVTDSYPEPTQLLMGTKSVCEVGSNWFQPIYLGAMFSLQEGDKLMVNVSDISLVDYTKEDKTFFGAFLL
2. TL1W37 (His-TEV-TL1A L123E) (ligand, also called TL1W37 (L123E)) HHHHHHENLYFQGLKGQEFAPSHQQVYAPLRADGDKPRAHLTVVRQTPTQHFKNQFPALHWEHEEGLAFTKNRMNYTNKFLLIPESGDYFIYSQVTFRGMTSECSEIRQAGRPNKPDSITVVITKVTDSYPEPTQLLMGTKSVCEVGSNWFQPIYLGAMFSLQEGDKLMVNVSDISLVDYTKEDKTFFGAFLL
3. TL1W38 (His-TEV-TL1A L123K) (ligand, also called TL1W38 (L123K)) HHHHHHENLYFQGLKGQEFAPSHQQVYAPLRADGDKPRAHLTVVRQTPTQHFKNQFPALHWEHEKGLAFTKNRMNYTNKFLLIPESGDYFIYSQVTFRGMTSECSEIRQAGRPNKPDSITVVITKVTDSYPEPTQLLMGTKSVCEVGSNWFQPIYLGAMFSLQEGDKLMVNVSDISLVDYTKEDKTFFGAFLL

16.4
24.3
24.7

So what does the record say about EC50 for TL1W47 (His-TEV-TL1A E241A) (ligand, also called TL1W47 (E241A)) HHHHHHENLYFQGLKGQEFAPSHQQVYAPLRADGDKPRAHLTVVRQTPTQHFKNQFPALHWEHELGLAFTKNRMNYTNKFLLIPESGDYFIYSQVTFRGMTSECSEIRQAGRPNKPDSITVVITKVTDSYPEPTQLLMGTKSVCEVGSNWFQPIYLGAMFSLQEGDKLMVNVSDISLVDYTKADKTFFGAFLL ? 1310
